Reported CD50 values are given for each entry in this list.
system: Escherichia coli; assay: In vivo antibacterial activity was measured relative to alafosfalin against Escherichia coli 281007 strain after po administration.; assay type: functional
reported.endpoint: CD50 (relative molar activity)

> print(dat)
                                   molecule  quantitative.result
1        CCC[C@H](N)C(=O)N[C@H](C)P(=O)(O)O                  1.1
2  C[C@H](N)C(=O)N[C@@H](C)P(=O)(O)O [ALAFOSFALIN]                    1
3  C[C@@H](NC(=O)[C@@H](N)CCCN=C(N)N)P(=O)(O)O                  7.7
4  CNCC(=O)N[C@@H](C)C(=O)N[C@@H](C)C(=O)N[C@H](C)P(=O)(O)O                 1.05
5  CCC[C@H](NC(=O)CNC)C(=O)N[C@@H](CCC)C(=O)N[C@H](C)P(=O)(O)O                  1.1
